Tested on: Polygonum convolvulus (POLCO)
Test: Herbicidal post-emergence action (D), 320 g/ha
Format: in vivo
Conditions: ca. 3 weeks
OBSERVABLE: herbicidal effect POLCO (%)
Respond numerically; units are % and should not be typed.

>  <MOL_SMILES>
Clc1cc2scnc2nc1-c1sccc1Cl

>  <herbicidal effect POLCO (%)>
80

$$$$

Recorded herbicidal effect POLCO (compound `Cc1cc2scnc2nc1-c1ccc(F)cc1F` ): 90

Sure, the documented herbicidal effect POLCO for `CCc1cc2scnc2nc1-c1cccc(F)c1` is 90

compound `Fc1ccccc1-c1nc2ncsc2cc1I` , herbicidal effect POLCO observed: 80

// recorded herbicidal effect POLCO for `Cc1cc2scnc2nc1-c1ccccc1` : 90

herbicidal effect POLCO measured on `Fc1cccc(F)c1-c1nc2ncsc2cc1Cl` = 90

The reported value for `Cc1cc2scnc2nc1-c1ccccc1F` in terms of herbicidal effect POLCO is 90

// herbicidal effect POLCO value for `Cc1cc2scnc2nc1-c1sccc1Cl` : 80

The compound identified as `Cc1cc2scnc2nc1-c1ccccc1Cl` registered its herbicidal effect POLCO at 90

----------
Some compounds, each annotated with its measured herbicidal effect KCHSC.
Test system: Kochia scoparia (KCHSC; Bassia scoparia)
Test: Herbicidal pre-emergence action (A), 1280 g/ha
Type: in vivo
Details: visual grading after ca. 3 weeks vs untreated controls

// solved cases for herbicidal effect KCHSC follow
>  <MOL_SMILES>
Cc1ccccc1-c1ccc2scnc2n1

>  <TARGET>
Kochia scoparia (KCHSC; Bassia scoparia)

>  <herbicidal effect KCHSC>
100%

$$$$
>  <MOL_SMILES>
Cc1cc2scnc2nc1-c1ccccc1Cl

>  <TARGET>
Kochia scoparia (KCHSC; Bassia scoparia)

>  <herbicidal effect KCHSC>
100%

$$$$
>  <MOL_SMILES>
CCc1cc2scnc2nc1-c1ccccc1C(F)(F)F

>  <TARGET>
Kochia scoparia (KCHSC; Bassia scoparia)

>  <herbicidal effect KCHSC>
100%

$$$$
>  <MOL_SMILES>
Fc1cc(F)c(-c2nc3ncsc3cc2Cl)c(F)c1

>  <TARGET>
Kochia scoparia (KCHSC; Bassia scoparia)

>  <herbicidal effect KCHSC>
90%

$$$$
>  <MOL_SMILES>
Cc1cccc(F)c1-c1nc2ncsc2cc1Br

>  <TARGET>
Kochia scoparia (KCHSC; Bassia scoparia)

>  <herbicidal effect KCHSC>
90%

$$$$

Now for the compound whose herbicidal effect KCHSC we want.
For reference, reported herbicidal effect KCHSC for `Cc1cccc(F)c1-c1nc2ncsc2cc1Cl` stands at 100%

----------
Tested on: Kochia scoparia (KCHSC; Bassia scoparia)
Assay: Herbicidal pre-emergence action (A), 1280 g/ha
Type: in vivo
Details: visual grading after ca. 3 weeks vs untreated controls
OBSERVABLE: herbicidal effect KCHSC (%)
Answer in %, number only, no unit symbol.

>  <COMPOUND>
Clc1cc2scnc2nc1-c1ccsc1

>  <herbicidal effect KCHSC [%]>
90

$$$$
>  <COMPOUND>
Cc1scc(-c2ccc3scnc3n2)c1C

>  <herbicidal effect KCHSC [%]>
90

$$$$
>  <COMPOUND>
Fc1ccccc1-c1nc2ncsc2cc1C1CC1

>  <herbicidal effect KCHSC [%]>
100

$$$$
>  <COMPOUND>
Cc1cc2scnc2nc1-c1ccccc1

>  <herbicidal effect KCHSC [%]>
100

$$$$

Sure, the documented herbicidal effect KCHSC for `Clc1cc2scnc2nc1-c1ccsc1Cl` is 90

Measured herbicidal effect KCHSC, `Cc1sccc1-c1nc2ncsc2cc1Br` : 90

Input `Fc1ccccc1-c1nc2ncsc2cc1I` . Output herbicidal effect KCHSC: 90

The recorded herbicidal effect KCHSC for `Cc1cc2sc(S)nc2nc1-c1ccccc1F` is 90

GET /value?item= `Cc1cc2scnc2nc1-c1sccc1C` &field=herbicidal effect KCHSC returns 90

The recorded herbicidal effect KCHSC for entry `N#CCc1nc2nc(-c3ccccc3F)c(Br)cc2s1` equals 90

For reference, reported herbicidal effect KCHSC for `CCc1cc2scnc2nc1-c1ccccc1OC` stands at 100

// herbicidal effect KCHSC value for `CCc1cc2scnc2nc1C1=CCCCC1` : 90

`Fc1ccccc1-c1nc2ncsc2cc1Cl` yielded herbicidal effect KCHSC of 100

Consider `Cc1sccc1-c1ccc2scnc2n1` . Its measured herbicidal effect KCHSC is 90

// recorded herbicidal effect KCHSC for Cc1cc2sc([S+](C)[O-])nc2nc1-c1ccccc1F (centres unmarked) : 100

Item: `C=Cc1cc2scnc2nc1-c1ccccc1F` | herbicidal effect KCHSC: 100

Lab note: measured herbicidal effect KCHSC of `CCc1cc2sc(S(C)(=O)=O)nc2nc1-c1ccccc1F` was 90

// herbicidal effect KCHSC lookup, compound = `Cc1cc2scnc2nc1-c1ccc(F)cc1F` , result: 100

Measured herbicidal effect KCHSC, `CCc1cc2sc(S)nc2nc1C1=CCCCC1` : 90

Briefly, herbicidal effect KCHSC measured for `Cc1cscc1-c1nc2ncsc2cc1C` : 90

The recorded herbicidal effect KCHSC for CCc1cc2sc([S+](C)[O-])nc2nc1-c1ccccc1 (centres unmarked) is 90

Consider `CCc1cc2scnc2nc1-c1ccccc1` . Its measured herbicidal effect KCHSC is 90

The compound `CCCc1cc2scnc2nc1-c1ccccc1F` showed herbicidal effect KCHSC equal to 90
